# subjectOfTest: URAT-1 transporter (Homo sapiens)
# Construct: expressed in transfected cells
# Sequence (Q96S37 with tags, fused parts or gaps): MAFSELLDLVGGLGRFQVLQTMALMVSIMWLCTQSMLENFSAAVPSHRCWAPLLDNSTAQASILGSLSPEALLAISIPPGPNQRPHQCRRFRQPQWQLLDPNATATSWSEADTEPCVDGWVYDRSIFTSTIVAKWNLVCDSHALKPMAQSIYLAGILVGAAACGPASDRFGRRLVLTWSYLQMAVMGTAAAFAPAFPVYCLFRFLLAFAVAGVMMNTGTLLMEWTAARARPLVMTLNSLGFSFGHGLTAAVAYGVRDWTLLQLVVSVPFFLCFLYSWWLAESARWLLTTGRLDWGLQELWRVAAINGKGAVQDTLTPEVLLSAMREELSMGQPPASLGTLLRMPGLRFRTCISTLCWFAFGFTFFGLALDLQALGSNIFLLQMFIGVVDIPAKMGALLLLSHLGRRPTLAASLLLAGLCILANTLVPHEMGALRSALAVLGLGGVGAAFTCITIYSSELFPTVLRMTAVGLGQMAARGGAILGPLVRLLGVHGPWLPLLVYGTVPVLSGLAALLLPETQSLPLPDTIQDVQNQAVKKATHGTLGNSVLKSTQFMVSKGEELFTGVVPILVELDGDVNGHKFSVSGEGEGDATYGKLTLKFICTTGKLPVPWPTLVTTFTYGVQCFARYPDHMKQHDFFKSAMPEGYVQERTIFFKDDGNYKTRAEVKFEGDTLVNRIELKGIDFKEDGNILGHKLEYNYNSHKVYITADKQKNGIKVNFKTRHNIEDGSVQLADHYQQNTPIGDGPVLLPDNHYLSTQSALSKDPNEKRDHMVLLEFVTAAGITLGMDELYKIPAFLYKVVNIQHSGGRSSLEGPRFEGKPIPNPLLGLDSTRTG
# methodDescription: URAT-1 inhibitor activity: [14C]-uric acid uptake into CHO-URAT1(L)GFP#8 (CHO#8) cells, scintillation proximity
# Assay type: cell-based
pIC50: −log10 of the molar value.
measureName: pIC50

These recorded examples may help you get a feel for the data.
{"molecule": "CC(C)Oc1ccccc1Oc1ccc(S(=O)(=O)Nc2ncns2)cc1C#N [compound 278]", "subjectOfTest": "URAT-1 transporter (Homo sapiens)", "measureName": "pIC50", "experimentalValue": 5.56}
{"molecule": "CCOc1cccc(Oc2ccc(S(=O)(=O)Nc3ncc(F)s3)cc2C#N)c1 [Example 100]", "subjectOfTest": "URAT-1 transporter (Homo sapiens)", "measureName": "pIC50", "experimentalValue": 6.26}
{"molecule": "N#Cc1cc(S(=O)(=O)Nc2ncc(Cl)s2)ccc1Oc1ccccc1F [Example 84]", "subjectOfTest": "URAT-1 transporter (Homo sapiens)", "measureName": "pIC50", "experimentalValue": 6.17}

P: CSc1ncccc1Oc1cc(F)c(S(=O)(=O)Nc2nncs2)cc1Cl [compound 310]
Q: CC(C)Oc1ccc(F)cc1Oc1cc(F)c(S(=O)(=O)Nc2nncs2)cc1Cl [compound 295]
R: N#Cc1ccc(Oc2ccc(S(=O)(=O)Nc3nccs3)cc2C#N)cc1Cl [Example 1]
Qu. Please produce an ascending ranking of these molecules based on pIC50. A complete answer lists every label in the requested sequence.
Ans. P, Q, R
(P: 6.06, Q: 6.32, R: 7.24)

* * *

# subjectOfTest: URAT-1 transporter (Homo sapiens)
# Construct: expressed in transfected cells
# methodDescription: URAT-1 inhibitor activity: [14C]-uric acid uptake into CHO-URAT1(L)GFP#8 (CHO#8) cells, scintillation proximity
# Type: cell-based
# Description: The nucleotide sequence for the long isoform of URAT1 (NM_144585) was C-terminally fused to that of enhanced green fluorescent protein (eGFP) (hereinafter referred to as URAT1(L)GFP). The combined sequence was codon-optimised and custom synthesized. […] The potency of the compounds of formula (I) as inhibitors of the URAT-1 transporter was determined as follows. […] Assay ready flasks were generated by the same method, except the cells were not cultured in blasticidin. […]
measureName: IC50 (nM)

These recorded examples may help you get a feel for the data.
{"compound": "Cc1ccncc1Oc1cc(F)c(S(=O)(=O)Nc2nncs2)cc1Cl [compound 313]", "experimentalValue": 3170}
{"compound": "N#Cc1cc(S(=O)(=O)Nc2nccs2)ccc1Oc1ccc(I)cc1F [compound 178]", "experimentalValue": 645}
{"compound": "N#Cc1cc(Oc2cc(F)c(S(=O)(=O)Nc3ncns3)cc2F)ccc1F [compound 213]", "experimentalValue": 2040}

I: N#Cc1ccc(Oc2ccc(S(=O)(=O)Nc3ncns3)cc2Cl)cc1Cl [compound 210]
II: N#Cc1ccc(Oc2ccc(S(=O)(=O)Nc3nncs3)cc2C#N)cc1Cl [compound 219]
Qu. Parameter check: reported IC50 is higher for which label, I or II ? Mark your selection by writing its label.
Ans. I
(I: 1610 nM, II: 426 nM)

P: CC(C)c1ccccc1Oc1ccc(S(=O)(=O)Nc2ncc(F)s2)cc1C#N [Example 97]
Q: N#Cc1ccc(Oc2ccc(S(=O)(=O)Nc3ncns3)cc2Cl)cc1 [Example 64]
R: COc1cccc(Oc2ccc(S(=O)(=O)Nc3ncc(F)s3)cc2C#N)c1 [Example 109]
S: N#Cc1cc(S(=O)(=O)Nc2ncc(Cl)s2)ccc1Oc1ccc(F)c(F)c1 [compound 197]
T: CC(Oc1ncc(Oc2ccc(S(=O)(=O)Nc3nncs3)cc2C#N)cc1Cl)C(F)(F)F (centres unmarked) [Example 335]
Qu. Please rank these compounds by IC50 in descending order. A complete answer lists every label in the requested sequence.
Ans. Q, T, P, R, S

A: N#Cc1ccc(Oc2ccc(S(=O)(=O)Nc3nncs3)cc2Cl)cc1Cl [compound 203]
B: Cc1ccc(Oc2ccc(S(=O)(=O)Nc3ncc(F)s3)cc2C#N)c(F)c1F [Example 120]
C: COc1cccc(Oc2cc(F)c(S(=O)(=O)Nc3nncs3)cc2Cl)c1C [compound 323]
Qu. Please rank these compounds by IC50 in descending order. A complete answer lists every label in the requested sequence.
Ans. C, B, A

* * *

# subjectOfTest: URAT-1 transporter (Homo sapiens)
# Construct: expressed in transfected cells
# methodDescription: URAT-1 inhibitor activity: [14C]-uric acid uptake into CHO-URAT1(L)GFP#8 (CHO#8) cells, scintillation proximity
# Format: cell-based
# Method: The nucleotide sequence for the long isoform of URAT1 (NM_144585) was C-terminally fused to that of enhanced green fluorescent protein (eGFP) (hereinafter referred to as URAT1(L)GFP). The combined sequence was codon-optimised and custom synthesized. […] The potency of the compounds of formula (I) as inhibitors of the URAT-1 transporter was determined as follows. […] Assay ready flasks were generated by the same method, except the cells were not cultured in blasticidin. […]
Counter-ions that a name gives are not always drawn.
measureName: IC50 (nM)

These recorded examples may help you get a feel for the data.
{"compound": "O=S(=O)(Nc1ncns1)c1ccc(Oc2ccc(F)c(F)c2)c(Cl)c1", "subjectOfTest": "URAT-1 transporter (Homo sapiens)", "measureName": "IC50", "experimentalValue": 823}
{"compound": "O=S(=O)(Nc1cscn1)c1cc(Cl)c(Oc2cc(C(F)(F)F)ccc2I)cc1F", "subjectOfTest": "URAT-1 transporter (Homo sapiens)", "measureName": "IC50", "experimentalValue": 347}
{"compound": "CCSc1ncccc1Oc1ccc(S(=O)(=O)Nc2ncns2)cc1C#N [compound 255, trifluoroacetic acid salt]", "subjectOfTest": "URAT-1 transporter (Homo sapiens)", "measureName": "IC50", "experimentalValue": 684}
{"compound": "N#Cc1cc(Oc2ccc(S(=O)(=O)Nc3cscn3)cc2I)ccc1F", "subjectOfTest": "URAT-1 transporter (Homo sapiens)", "measureName": "IC50", "experimentalValue": 577}
{"compound": "CCc1cc(F)ccc1Oc1ccc(S(=O)(=O)Nc2ncns2)cc1I", "subjectOfTest": "URAT-1 transporter (Homo sapiens)", "measureName": "IC50", "experimentalValue": 69}
{"compound": "Cc1c(Oc2cc(F)c(S(=O)(=O)Nc3nncs3)cc2Cl)ccc(F)c1F", "subjectOfTest": "URAT-1 transporter (Homo sapiens)", "measureName": "IC50", "experimentalValue": 145}
{"compound": "N#Cc1cc(S(=O)(=O)Nc2ncns2)ccc1Oc1cccnc1 [compound 253, trifluoroacetic acid salt]", "subjectOfTest": "URAT-1 transporter (Homo sapiens)", "measureName": "IC50", "experimentalValue": 2130}
{"compound": "CCc1ccccc1Oc1ccc(S(=O)(=O)Nc2ncc(F)s2)cc1C#N", "subjectOfTest": "URAT-1 transporter (Homo sapiens)", "measureName": "IC50", "experimentalValue": 345}

a: O=S(=O)(Nc1ncns1)c1ccc(Oc2ccc(F)c(F)c2)c(F)c1
b: CCc1cc(F)ccc1Oc1ccc(S(=O)(=O)Nc2nccs2)cc1C#N
Qu. Hey, which is lower on measured IC50, a or b ? Mark your selection by writing its label.
Ans. b
(b: 121 nM, a: 2240 nM)

P: N#Cc1cc(S(=O)(=O)Nc2ncc(F)s2)ccc1Oc1cc(F)ccc1F
Q: N#Cc1cc(S(=O)(=O)Nc2nccs2)ccc1Oc1ccc(CO)cc1F
R: N#Cc1cc(Cl)ccc1Oc1ccc(S(=O)(=O)Nc2ncns2)cc1C#N
Qu. Please produce an ascending ranking of these compounds based on IC50. A complete answer lists every label in the requested sequence.
Ans. Q, P, R

a: N#Cc1cc(S(=O)(=O)Nc2ncc(F)s2)ccc1Oc1cccc(Cl)c1F
b: CCOc1ncccc1Oc1ccc(S(=O)(=O)Nc2ncns2)cc1C#N
c: N#Cc1cc(S(=O)(=O)Nc2nccs2)ccc1Oc1ccc(Cl)cc1OC(F)(F)F
d: O=S(=O)(Nc1nncs1)c1cc(Cl)c(Oc2cccc(Cl)c2)cc1F
e: Cc1cc(Oc2ccc(S(=O)(=O)Nc3nncs3)cc2C#N)cc(C)c1C#N
Qu. Please rank these compounds by IC50 in descending order. A complete answer lists every label in the requested sequence.
Ans. d, a, c, b, e

A: CC(C)Oc1ccccc1Oc1cc(F)c(S(=O)(=O)Nc2nncs2)cc1Cl
B: N#Cc1cc(Oc2ccc(S(=O)(=O)Nc3ncns3)cc2Cl)ccc1F
Qu. Parameter check: reported IC50 is higher for which label, A or B ? Mark your selection by writing its label.
Ans. A

* * *

# subjectOfTest: URAT-1 transporter (Homo sapiens)
# Construct: expressed in transfected cells
# methodDescription: URAT-1 inhibitor activity: [14C]-uric acid uptake into CHO-URAT1(L)GFP#8 (CHO#8) cells, scintillation proximity
# Format: cell-based
Where a name gives a salt, the structure may show the parent alone.
measureName: IC50 (nM)

{"compound": "Cc1cc(S(=O)(=O)Nc2ncns2)ccc1Oc1ccc(F)c(F)c1 [compound 211]", "subjectOfTest": "URAT-1 transporter (Homo sapiens)", "IC50, nM": 1110}
{"compound": "Cc1cncc(Oc2ccc(S(=O)(=O)Nc3ncns3)cc2C#N)c1 [compound 252, trifluoroacetic acid salt]", "subjectOfTest": "URAT-1 transporter (Homo sapiens)", "IC50, nM": 1110}
{"compound": "Cc1c(Oc2ccc(S(=O)(=O)Nc3ncc(F)s3)cc2C#N)ccc(F)c1F [Example 128]", "subjectOfTest": "URAT-1 transporter (Homo sapiens)", "IC50, nM": 1190}
